- Experimental protocol: Tumor homogenate activation efficiency, ovarian cancer tissue (Examples 28, 37)
- Type: in vitro ADME
- Test settings: pH 5.0, 37° C., 2 h; Table 5
Where a SMILES comes first, the peptide text is derived from it. The star is where a group is joined. X3 = CC[C@@]1(O)C(=O)OCc2c1cc1n(c2=O)Cc2c-1nc1ccccc1c2CCN(C1CC1)*; Propanoyl(3-maleimido) = O=C1C=CC(=O)N1CCC(=O)*; PEG6 = NCCOCCOCCOCCOCCOCCOCCC(=O)O
Value type: Percentage of release efficiency (%) Ovarian cancer tissue (A2780)
Value expressed in %; do not type the unit.

Q) I am curious: what Percentage of release efficiency (%) Ovarian cancer tissue (A2780) value has been reported for CC[C@@]1(O)C(=O)OCc2c1cc1n(c2=O)Cc2c-1nc1ccccc1c2CCN(C(=O)CNC(=O)[C@H](Cc1ccccc1)NC(=O)CNC(=O)CNC(=O)CCOCCOCCOCCOCCOCCOCCNC(=O)CCN1C(=O)C=CC1=O)C1CC1 [MI-6PEG-GGFG-D6] ({Propanoyl(3-maleimido)-PEG6}-GGFG-X3) ?
A) 66.3
